Assay: Surrogate Activity-Based Plasma Stability Assay
Type: in vitro ADME
Settings: rat
Where a SMILES comes first, the peptide text is derived from it. Bridges are numbered along the chain shown (N, C = ends). [ ]: non-standard residue; d: D form. Nle = CCCC[C@H](N)C(=O)O
molecules and their reported half-life
All answers are understood in h, so give the number only.

molecule="CCCC[C@H](NC(=O)[C@@H]1CCCN1C(=O)CNC(=O)[C@H](CCCCN)NC(=O)[C@@H]1CSSC[C@H](NC(C)=O)C(=O)N[C@@H](CCCNC(=N)N)C(=O)N2CCC[C@H]2C(=O)N[C@@H](CCCNC(=N)N)C(=O)N[C@@H](CC(C)C)C(=O)N[C@@H](CO)C(=O)N1)C(=O)N1CCC[C@H]1C(=O)N[C@H](Cc1ccccc1)C(=O)O [Example 10, Ac-C*-R-P-R-L-S-C*-K-G-P-Nle-P-f-OH] (Ac-CRPRLSCKGP[Nle]P[dF]-OH; disulfide 1-7)" metric=half-life unit=h assay_value=0.957

Now let's try a different one.
Qu. Record request: half-life value, item CCCC[C@H](NC(=O)[C@@H]1CCCN1C(=O)CNC(=O)[C@H](CCCCN)NC(=O)[C@@H]1CSSC[C@H](NC(C)=O)C(=O)N[C@@H](CCCNC(=N)N)C(=O)N2CCC[C@H]2C(=O)N[C@@H](CCCNC(=N)N)C(=O)N[C@@H](CC(C)C)C(=O)N[C@@H](CO)C(=O)N1)C(=O)N1CCC[C@H]1C(N)=O [Example 4, Ac-C*-R-P-R-L-S-C*-K-G-P-Nle-P-NH2] (Ac-CRPRLSCKGP[Nle]P-NH2; disulfide 1-7)
Ans. 8.43

###

Some compounds, each annotated with its measured half-life.
Assay: Surrogate Activity-Based Plasma Stability Assay
Assay type: in vitro ADME
Settings: rat
Where a SMILES comes first, the peptide text is derived from it. Bridges are numbered along the chain shown (N, C = ends). [ ]: non-standard residue; d: D form. The star is where a group is joined. NHPhenethyl = c1ccc(CCN*)cc1; d(hCys) = N[C@H](CCS)C(=O)O; Nle = CCCC[C@H](N)C(=O)O
Report as a plain number; the unit min is understood.

Qu. For the compound CCCC[C@H](NC(=O)[C@@H]1CCCN1C(=O)CNC(=O)[C@H](CCCCN)NC(=O)[C@H]1CSSC[C@H](NC(C)=O)C(=O)N[C@@H](CCCNC(=N)N)C(=O)N2CCC[C@H]2C(=O)N[C@@H](CCCNC(=N)N)C(=O)N[C@@H](CC(C)C)C(=O)N[C@@H](CO)C(=O)N1)C(=O)N1CCC[C@H]1C(=O)N[C@@H](Cc1ccccc1)C(=O)O [Example 15, Ac-C*-R-P-R-L-S-c*-K-G-P-Nle-P-F-OH] (Ac-CRPRLS[dC]KGP[Nle]PF-OH; disulfide 1-7) , what half-life is on record?
Ans. 17.7

Qu. Any idea what half-life was measured for CCCC[C@H](NC(=O)[C@@H]1CCCN1C(=O)CNC(=O)[C@H](CCCCN)NC(=O)[C@@H]1CSSC[C@H](NC(C)=O)C(=O)N[C@@H](CCCNC(=N)N)C(=O)N2CCC[C@H]2C(=O)N[C@@H](CCCNC(=N)N)C(=O)N[C@@H](CC(C)C)C(=O)N[C@@H](CO)C(=O)N1)C(=O)N1CCC[C@H]1C(=O)NCCc1ccccc1 [Example 2] (Ac-CRPRLSCKGP[Nle]P-NHPhenethyl; disulfide 1-7) ?
Ans. 39

Qu. Entry CCCC[C@H](NC(=O)[C@@H]1CCCN1C(=O)CNC(=O)[C@H](CCCCN)NC(=O)[C@H]1CCSSCC[C@@H](NC(C)=O)C(=O)N[C@@H](CCCNC(=N)N)C(=O)N2CCC[C@H]2C(=O)N[C@@H](CCCNC(=N)N)C(=O)N[C@@H](CC(C)C)C(=O)N[C@@H](CO)C(=O)N1)C(=O)N1CCC[C@H]1C(=O)N[C@@H](Cc1ccccc1)C(=O)O [Example 17] (Ac-[d(hCys)]RPRLS[d(hCys)]KGP[Nle]PF-OH; disulfide 1-7) : reported half-life = ?
Ans. 11.4

###

Assay: Surrogate Activity-Based Plasma Stability Assay
Type: in vitro ADME
Settings: rat, read-out: Surrogate activity-based Plasma stability t½
Where a SMILES comes first, the peptide text is derived from it. Bridges are numbered along the chain shown (N, C = ends). [ ]: non-standard residue; d: D form. The star is where a group is joined. N(Me)CH2CH2Ph = CN(CCc1ccccc1)*; Nle = CCCC[C@H](N)C(=O)O
metric: half-life (h)
Give a bare numeral; the unit h is implied.

Qu. Please report the recorded half-life for CCCC[C@H](NC(=O)[C@@H]1CCCN1C(=O)CNC(=O)[C@H](CCCCN)NC(=O)[C@@H]1CSSC[C@H](NC(C)=O)C(=O)N[C@@H](CCCNC(=N)N)C(=O)N2CCC[C@H]2C(=O)N[C@@H](CCCNC(=N)N)C(=O)N[C@@H](CC(C)C)C(=O)N[C@@H](CO)C(=O)N1)C(=O)N1CCC[C@H]1C(=O)N(C)CCc1ccccc1 [Example 9] (Ac-CRPRLSCKGP[Nle]P-{N(Me)CH2CH2Ph}; disulfide 1-7) .
Ans. 1.82

###

Assay: Surrogate Activity-Based Plasma Stability Assay
Format: in vitro ADME
Settings: rat
Where a SMILES comes first, the peptide text is derived from it. Bridges are numbered along the chain shown (N, C = ends). [ ]: non-standard residue; d: D form. hCys = N[C@@H](CCS)C(=O)O; Nle = CCCC[C@H](N)C(=O)O
metric: half-life (min)
Write the number in min without appending the unit.

Qu. Which half-life value belongs to CCCC[C@H](NC(=O)[C@@H]1CCCN1C(=O)CNC(=O)[C@H](CCCCN)NC(=O)[C@@H]1CCSSC[C@H](NC(C)=O)C(=O)N[C@@H](CCCNC(=N)N)C(=O)N2CCC[C@H]2C(=O)N[C@@H](CCCNC(=N)N)C(=O)N[C@@H](CC(C)C)C(=O)N[C@@H](CO)C(=O)N1)C(=O)N1CCC[C@H]1C(=O)N[C@@H](Cc1ccccc1)C(=O)O [Example 6, Ac-C*-R-P-R-L-S-hC*-K-G-P-Nle-P-F-OH] (Ac-CRPRLS[hCys]KGP[Nle]PF-OH; disulfide 1-7) ?
Ans. 5

###

Listing: pEC50 of selected compounds
Target: hAPJ (Homo sapiens)
Sequence (P35414 whole entry): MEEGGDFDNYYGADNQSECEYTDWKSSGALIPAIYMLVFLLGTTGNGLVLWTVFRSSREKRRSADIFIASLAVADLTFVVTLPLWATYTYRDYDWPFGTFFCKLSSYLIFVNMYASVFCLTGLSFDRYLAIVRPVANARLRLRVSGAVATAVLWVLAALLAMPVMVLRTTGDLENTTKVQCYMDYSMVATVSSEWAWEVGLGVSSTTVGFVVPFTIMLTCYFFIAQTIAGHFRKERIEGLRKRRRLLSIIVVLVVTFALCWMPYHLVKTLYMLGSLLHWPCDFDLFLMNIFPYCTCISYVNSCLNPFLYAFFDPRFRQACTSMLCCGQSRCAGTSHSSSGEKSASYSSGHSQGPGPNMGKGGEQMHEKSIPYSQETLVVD
Assay: hAPJ Calcium Flux Assay
Details: Chem-5 APJ stable cells, calcium flux stimulation; read-out: hAPJ Ca2+ Flux EC50
Where a SMILES comes first, the peptide text is derived from it. Bridges are numbered along the chain shown (N, C = ends). [ ]: non-standard residue; d: D form. NMeF = CN[C@@H](Cc1ccccc1)C(=O)O; pGlu = O=C1CC[C@@H](C(=O)O)N1; hCys = N[C@@H](CCS)C(=O)O; Nle = CCCC[C@H](N)C(=O)O
Please express pEC50 as -log10 of the molar concentration.

// below: answered compounds
compound="CC(C)C[C@@H]1NC(=O)[C@@H](NC(=O)[C@@H]2CCCN2C(=O)[C@H](CCCNC(=N)N)NC(=O)[C@@H]2CCC(=O)N2)CCSSC[C@@H](C(=O)N[C@@H](CCCCN)C(=O)NCC(=O)N2CCC[C@H]2C(=O)N[C@H](Cc2ccccc2)C(=O)N[C@H](C)C(=O)N[C@H](Cc2ccccc2)C(=O)O)NC(=O)[C@H](CO)NC1=O [Example 36, pE-R-P-hC*-L-S-C*-K-G-P-f-a-f-OH] ([pGlu]RP[hCys]LSCKGP[dF][dA][dF]-OH; disulfide 4-7)" tested_system="hAPJ (Homo sapiens)" assay_value=8.38
compound="CCCC[C@H](NC(=O)[C@@H]1CCCN1C(=O)CNC(=O)[C@H](CCCCN)NC(=O)[C@H]1CSSC[C@H](NC(C)=O)C(=O)N[C@@H](CCCNC(=N)N)C(=O)N2CCC[C@H]2C(=O)N[C@@H](CCCNC(=N)N)C(=O)N[C@@H](CC(C)C)C(=O)N[C@@H](CO)C(=O)N1)C(=O)N1CCC[C@H]1C(=O)N[C@@H](Cc1ccccc1)C(=O)O [Example 15, Ac-C*-R-P-R-L-S-c*-K-G-P-Nle-P-F-OH] (Ac-CRPRLS[dC]KGP[Nle]PF-OH; disulfide 1-7)" tested_system="hAPJ (Homo sapiens)" assay_value=6.71
compound="CCCC[C@H](NC(=O)[C@@H]1CCCN1C(=O)CNC(=O)[C@H](CCCCN)NC(=O)[C@@H]1CSSC[C@@H](NC(C)=O)C(=O)N[C@@H](CCCNC(=N)N)C(=O)N2CCC[C@H]2C(=O)N[C@@H](CCCNC(=N)N)C(=O)N[C@@H](CC(C)C)C(=O)N[C@@H](CO)C(=O)N1)C(=O)N1CCC[C@H]1C(=O)N[C@@H](Cc1ccccc1)C(=O)O [Example 12, Ac-c*-R-P-R-L-S-C*-K-G-P-Nle-P-F-OH] (Ac-[dC]RPRLSCKGP[Nle]PF-OH; disulfide 1-7)" tested_system="hAPJ (Homo sapiens)" assay_value=7.67
compound="CCCC[C@H](NC(=O)[C@@H]1CCCN1C(=O)CNC(=O)[C@H](CCCCN)NC(=O)[C@@H]1CSSC[C@H](NC(=O)[C@@H]2CCCN2C(=O)[C@H](CCCNC(=N)N)NC(=O)[C@@H]2CCC(=O)N2)C(=O)N[C@@H](CC(C)C)C(=O)N[C@@H](CO)C(=O)N1)C(=O)N1CCC[C@H]1C(=O)N(C)[C@@H](Cc1ccccc1)C(=O)O [Example 29, pE-R-P-C*-L-S-C*-K-G-P-Nle-P-(N-Me)F-OH] ([pGlu]RPCLSCKGP[Nle]P[NMeF]-OH; disulfide 4-7)" tested_system="hAPJ (Homo sapiens)" assay_value=8.38

Please look at the following compound next.
Qu. Looking for the measured pEC50 of CCCC[C@H](NC(=O)[C@@H]1CCCN1C(=O)CNC(=O)[C@H](CCCCN)NC(=O)[C@@H]1CCSSC[C@H](NC(C)=O)C(=O)N[C@@H](CCCNC(=N)N)C(=O)N2CCC[C@H]2C(=O)N[C@@H](CCCNC(=N)N)C(=O)N[C@@H](CC(C)C)C(=O)N[C@@H](CO)C(=O)N1)C(=O)N1CCC[C@H]1C(=O)N[C@@H](Cc1ccccc1)C(=O)O [Example 6, Ac-C*-R-P-R-L-S-hC*-K-G-P-Nle-P-F-OH] (Ac-CRPRLS[hCys]KGP[Nle]PF-OH; disulfide 1-7) , can you help?
Ans. 7.67
